Source listed as paper PMC9482650.

Target desc: T1, SHANK1, Q9Y566
T1 sequence (Q9Y566 658-767, limits assumed, looked up): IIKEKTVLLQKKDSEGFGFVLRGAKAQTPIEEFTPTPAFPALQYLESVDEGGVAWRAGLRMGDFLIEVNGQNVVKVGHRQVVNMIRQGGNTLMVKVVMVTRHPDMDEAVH
Protocol description: holdup assay
Parameters: key: below the threshold = too weak to quantify, mostly under pKd 3.1 to 4
Condition details: plain residues with an end cap or a label only (N-terminal biotin on a linker: ado-ado)
Reported property: pKd

SGSLKLMTTV [DACT1, Q9NYF0] : below the threshold
YNNCLEILRV [DCAF7, P61962] : below the threshold
YRLAQESGLV [ABCC6, O95255] : below the threshold
NHSSSPETTA [TRMT13, Q9NUP7] : below the threshold
SARSRLSSNL [HCN2, Q9UL51] : 4.09
GQEEQVTTRL [TRPC5, Q9UL62] : 5.61

Param item = QSPANIYYKV [EFNB1, P52799] ; retrieve measured pKd.
below the threshold

Param item = RHGSCVETSL [TMEM151B, Q8IW70] ; retrieve measured pKd.
4.64

Param item = HLRARKSEWV [GJD4, Q96KN9] ; retrieve measured pKd.
below the threshold

Param item = TASPAKETSF [SLC2A7, Q6PXP3] ; retrieve measured pKd.
below the threshold

Param item = PRISRSQSEL [CCDC134, Q9H6E4] ; retrieve measured pKd.
below the threshold

Param item = LPHPHSTTRV [NLGN2, Q8NFZ4] ; retrieve measured pKd.
4.81

Param item = KSGKQTMLVV [TRIM29, Q14134] ; retrieve measured pKd.
3.52

Param item = TACCHSETVV [TGFA, P01135] ; retrieve measured pKd.
below the threshold
